Reference for the values: patent US12617744B2

- Method: Evaluation of slurry filterability by constant pressure filtration (average specific filtration resistance)
- Assay type: physicochemical
- Conditions Used: slurry cooled to 1° C., filtrate volume 200 mL, filtration pressure 0.1 hPa
Observable: average specific filtration resistance (αav)

Some molecules with recorded average specific filtration resistance (αav):
COc1c(O)c(C)c(C/C=C(\C)CC/C=C(\C)CC/C=C(\C)CC/C=C(\C)CC/C=C(\C)CC/C=C(\C)CC/C=C(\C)CC/C=C(\C)CC/C=C(\C)CCC=C(C)C)c(O)c1OC [Comparative Example 1, reduced coenzyme Q10] | 3.4×10^10 m/kg
COc1c(O)c(C)c(C/C=C(\C)CC/C=C(\C)CC/C=C(\C)CC/C=C(\C)CC/C=C(\C)CC/C=C(\C)CC/C=C(\C)CC/C=C(\C)CC/C=C(\C)CCC=C(C)C)c(O)c1OC [Example 3, reduced coenzyme Q10] | 0.48×10^10 m/kg
COc1c(O)c(C)c(C/C=C(\C)CC/C=C(\C)CC/C=C(\C)CC/C=C(\C)CC/C=C(\C)CC/C=C(\C)CC/C=C(\C)CC/C=C(\C)CC/C=C(\C)CCC=C(C)C)c(O)c1OC [Example 2, reduced coenzyme Q10] | 0.98×10^10 m/kg

Please find the next molecule below.
Which average specific filtration resistance (αav) is listed for COc1c(O)c(C)c(C/C=C(\C)CC/C=C(\C)CC/C=C(\C)CC/C=C(\C)CC/C=C(\C)CC/C=C(\C)CC/C=C(\C)CC/C=C(\C)CC/C=C(\C)CCC=C(C)C)c(O)c1OC [Example 1, reduced coenzyme Q10] ?
0.47×10^10 m/kg
